Molecular target: T1, MUT-7 NTD-EXO (Caenorhabditis elegans, UniProt P34607 1-625)
T1 sequence: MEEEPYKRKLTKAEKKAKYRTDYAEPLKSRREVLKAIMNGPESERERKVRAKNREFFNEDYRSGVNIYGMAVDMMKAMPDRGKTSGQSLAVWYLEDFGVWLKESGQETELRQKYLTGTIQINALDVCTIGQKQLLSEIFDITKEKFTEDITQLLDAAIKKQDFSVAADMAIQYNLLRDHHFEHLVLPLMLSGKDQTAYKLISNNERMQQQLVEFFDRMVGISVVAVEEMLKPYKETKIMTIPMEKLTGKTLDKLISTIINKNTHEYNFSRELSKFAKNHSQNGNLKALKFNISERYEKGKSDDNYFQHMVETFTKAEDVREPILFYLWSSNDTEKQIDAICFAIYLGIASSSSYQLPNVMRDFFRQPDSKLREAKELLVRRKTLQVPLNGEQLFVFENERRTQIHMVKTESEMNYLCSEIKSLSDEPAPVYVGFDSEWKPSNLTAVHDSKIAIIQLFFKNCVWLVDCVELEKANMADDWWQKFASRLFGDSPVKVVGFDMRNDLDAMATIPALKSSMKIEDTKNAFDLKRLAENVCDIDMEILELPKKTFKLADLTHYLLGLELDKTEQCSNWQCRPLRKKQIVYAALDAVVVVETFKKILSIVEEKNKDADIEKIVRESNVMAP
Experiment: fluorescence polarization; 5 mM EDTA, 150 mM NaCl; Hill h 1.491; FP, 50 nM RNA, 30 min, room temperature; C. elegans proteins: 20 mM HEPES/NaOH pH 7.5, 150 mM NaCl, 10% glycerol, 5 mM EDTA; human proteins: 20 mM HEPES/NaOH pH 7.5, 250 mM NaCl
Conditions: protein: recombinant; label: 5'-FAM; single strand
assay.metric: pKd
Numbers only, as −log10 of the molar value.

Q: Note down pKd recorded for GUUGAUUGAAGAGUUC (ssRNA) [16-mer ssRNA]
A: 4.73

Where do the numbers come from? From paper PMC11347159.
